molecular target: PDE4; assay: PDE enzyme assay; conditions: read-out: PDE4 IC50; Data obtained by BPS Bioscience
pIC50: −log10 of the molar value.
Exercise: state measured pIC50 for each of the compounds provided.

**Q:** Reported pIC50, compound COc1ccc(CNc2c(CO)cnc3c(C4CC4)cc(C#N)cc23)cc1Cl : ____
**A:** < 5.00

**Q:** Also, COc1ccc(CNc2c(CO)cnc3c(N(C)C)cc(C#N)cc23)cc1Cl please.
**A:** < 5.00

###

target: PDE3; assay: PDE enzyme assay; conditions: read-out: PDE3 IC50; Data obtained by BPS Bioscience
pIC50: −log10 of the molar value.
property measured: pIC50

**Q:** For COc1ccc(CNc2c(CO)cnc3c(C4CC4)cc(C#N)cc23)cc1Cl [7a] , what is its reported pIC50?
**A:** < 5.00

**Q:** Another: COc1ccc(CNc2c(CO)cnc3c(N(C)C)cc(C#N)cc23)cc1Cl [7b]
**A:** < 5.00
